System: TFEB
METHOD NOTES: TFEB nuclear translocation assay, HeLa wt cells
Assay type: cell-based
PARTICULARS: Homo sapiens, HeLa, 2 h, 2 hrs compound treatment, Table 1 does not say HeLa wt or TRPML1 KO
Reported AC50 by item:

                                   molecule  measured_endpoint  experimental_value
0  COC(C)(C)C(=O)N1CCN(c2ccccc2NS(=O)(=O)c2ccc(S(=O)(=O)N(C)C)cc2)CC1 [Compound A-431]               AC50        2.01 to 8 µM
1  CN(C)S(=O)(=O)c1ccc(S(=O)(=O)n2c(=O)n(C3CCN(c4ccc(Cl)cc4F)CC3)c3ccccc32)cc1 [Compound A-63]               AC50        2.01 to 8 µM

Summary line: O=S(=O)(Nc1ccccc1N1CCC(c2ccc(Cl)cc2F)CC1)c1ccccc1 [Compound A-42] , TFEB, reported AC50 = ≥ 10 µM

AC50 of CC(C)(C)S(=O)(=O)c1ccc(S(=O)(=O)Nc2cccc(Cl)c2N2CCOCC2)cc1 [Compound A-278] , assay on TFEB, is ≥ 10 µM

Reported AC50 (TFEB) for entry CC(c1cccnc1)N1CCN(c2ccccc2NS(=O)(=O)c2ccc(S(=O)(=O)N(C)C)cc2)CC1 (stereo not shown) [Compound A-505] is 2.01 to 8 µM

Tested system TFEB; AC50 recorded for COCC1(C)CCN(c2ccccc2NS(=O)(=O)c2ccc(C3CC3)s2)CC1 [Compound A-708] was ≤ 2 µM

Given the molecule CC(C)(C)C(=O)N1CCN(c2ccccc2NS(=O)(=O)Cc2ccc3c(c2)COCC3)CC1 [Compound A-501] and test system TFEB, the measured AC50 is 2.01 to 8 µM

###

Tested on: TFEB
METHOD NOTES: TFEB nuclear translocation assay, HeLa wt cells
Assay type: cell-based
PARTICULARS: Homo sapiens, HeLa, 2 h, 2 hrs compound treatment, Table 1 does not say HeLa wt or TRPML1 KO
MEASURED ENDPOINT: AC50

Sample answers from the record:
MOLECULE	EXPERIMENTAL VALUE
CN(C)S(=O)(=O)c1ccc(S(=O)(=O)Nc2ccccc2N2CCC3(CC2)COC(C)(C)C3)cc1 [Compound A-440]	≤ 2000 nM
CC(c1ccccc1N1CCC(c2c(F)cccc2F)CC1)S(=O)(=O)c1ccc(S(=O)(=O)N(C)C)cc1 (centres unmarked) [Compound A-254]	≤ 2000 nM
CN(C)C1CC2(CCN(c3ccccc3NS(=O)(=O)c3ccc(S(=O)(=O)N(C)C)cc3)CC2)c2ccccc21 (centres unmarked) [Compound A-295]	2010 to 8000 nM
O=S(=O)(Nc1ccccc1N1CCC(c2ccc(F)cc2F)CC1)c1ccc(S(=O)(=O)C(F)F)cc1 [Compound A-185]	≤ 2000 nM
COCC1(C)CCN(c2ccccc2NS(=O)(=O)c2ccc(C)cc2)CC1 [Compound A-539]	≤ 2000 nM
CN(C)S(=O)(=O)c1ccc(S(=O)(=O)Nc2ccccc2N2CCC3(CCCCO3)CC2)cc1 [Compound A-562]	≤ 2000 nM
C[C@@H]1CN(CC2CCN(c3c(F)cccc3NS(=O)(=O)c3ccc(C(F)F)cc3)CC2)C[C@H](C)O1 [Compound A-766]	≤ 2000 nM
CC1(C)CC2(CCN(c3ccccc3NS(=O)(=O)C3(c4ccccc4)CC3)CC2)CO1 [Compound A-717]	2010 to 8000 nM
CN(C)S(=O)(=O)c1ccc(S(=O)(=O)Nc2ccccc2N2CCN(C3CCCOC3)CC2)cc1 (centres unmarked) [Compound A-450]	8010 to 9990 nM
C[C@H]1COC[C@H](C)N1C[C@H]1CCN(c2c(F)cccc2NS(=O)(=O)c2ccc(S(=O)(=O)N(C)C)cc2)C1 (relative stereo) [Compound A-896]	≤ 2000 nM

For record CN(C)S(=O)(=O)c1ccc(S(=O)(=O)Nc2ccccc2N2CCN(C34CC(C3)C4)CC2)cc1 [Compound A-179] the listed AC50 is ≤ 2000 nM

The molecule identified as C[C@@H]1C[C@@]2(CCN1c1ccccc1NS(=O)(=O)c1ccc(S(=O)(=O)N(C)C)cc1)COC(C)(C)C2 (racemic) [Compound A-799] registered its AC50 at ≤ 2000 nM

The reported value for O=S(=O)(Nc1ccccc1N1CCC(c2ccc(Cl)cc2F)CC1)c1ccccc1Cl [Compound A-76] in terms of AC50 is ≥ 10000 nM

These measurements were taken from patent US20230104936A1.
